Record form. Attribute: pIC50. Fill in for each entry.
- System: GM3
- measurementNotes: GM3 Elisa assay
- Format: cell-based
- experimentalSetup: Table 3 (IC 50 Values); B16-FO cells; read-out: IC50_uM_Mean
pIC50: −log10 of the molar value.

Data request: I'd like to know its pIC50. The compound in question is `COc1ccc(C(=O)CCCC(=O)N[C@H](CN2CCCC2)[C@H](O)c2ccc(C(F)(F)F)cc2)cc1`
Data returned: 5.00 to 5.52

Data request: I'd like to know its pIC50. The compound in question is `COc1ccc(C(=O)CCCCC(=O)N[C@H](CN2CC[C@H](O)C2)[C@H](O)c2ccc3c(c2)OCCO3)cc1`
Data returned: 6.00 to 7.00

Data request: I'd like to know its pIC50. The compound in question is CCC(C)NC[C@@H](NC(=O)CCCCCC(=O)c1ccc(OC)cc1)C(O)c1ccc2c(c1)OCCO2 (stereo partly shown)
Data returned: 6.00 to 7.00

Data request: I'd like to know its pIC50. The compound in question is `COc1ccc(OCCC(=O)N[C@H](CN2CCCC2)[C@H](O)c2ccc(OCCOc3cccc(C)c3)cc2)cc1`
Data returned: ≥ 7.00

Data request: I'd like to know its pIC50. The compound in question is `O=C(CCCCS(=O)(=O)C1CCCCC1)N[C@H](CN1CC[C@@H](F)C1)[C@H](O)c1ccc(OCc2ccccc2)cc1`
Data returned: 6.00 to 7.00

Data request: I'd like to know its pIC50. The compound in question is `CCCCCCOc1ccc([C@@H](O)[C@@H](CN2CCCC2)NC(=O)CCOc2ccc(OC)cc2)cc1`
Data returned: ≥ 7.00

Data request: I'd like to know its pIC50. The compound in question is `N#CCCCCCC(=O)N[C@H](CN1CCCC1)[C@H](O)c1ccc2c(c1)OCCO2`
Data returned: 5.00 to 5.52

* * *

- Test system: GM3
- measurementNotes: GM3 Elisa assay
- Assay type: cell-based
- experimentalSetup: Table 3 (IC 50 Values); B16-FO cells; read-out: IC50_uM_Mean
pIC50: −log10 of the molar value.
endpointName: pIC50

Data request: I'd like to know its pIC50. The molecule in question is `O=C(CCCCC(=O)C1CCC(F)(F)CC1)N[C@H](CN1CC[C@@H](F)C1)[C@H](O)c1ccc(OCc2ccccc2)cc1`
Data returned: 6.00 to 7.00

Data request: I'd like to know its pIC50. The molecule in question is `O=C(CCCCCN1Cc2ccccc2C1=O)N[C@H](CN1CCCC1)[C@H](O)c1ccc2c(c1)OCCO2`
Data returned: 5.52 to 6.00

Data request: I'd like to know its pIC50. The molecule in question is `CCCCCCCCCCCCCCCC(=O)N[C@H](CNCc1ccccc1)[C@H](O)c1ccc2c(c1)OCCO2`
Data returned: 5.00 to 5.52

Data request: I'd like to know its pIC50. The molecule in question is `CCCCCCCCCCCCCCCC(=O)N[C@H](CN(C)C1CCCC1)[C@@H](O)c1ccc2c(c1)OCCO2`
Data returned: 5.00 to 5.52

Data request: I'd like to know its pIC50. The molecule in question is `COc1ccc(OCCC(=O)N[C@H](CN2CCCC2)[C@@H](O)c2ccc3c(c2)OCCO3)cc1`
Data returned: 5.00 to 5.52

Data request: I'd like to know its pIC50. The molecule in question is `O=C(CCCCCC(=O)c1ccc(F)cc1)N[C@H](CN1CC[C@H](O)C1)[C@H](O)c1ccc2c(c1)OCCO2`
Data returned: ≥ 7.00

Data request: I'd like to know its pIC50. The molecule in question is `COc1ccc(C(=O)CCCCCC(=O)N[C@H](CN2CCCC2)[C@H](O)c2ccc(OC)c(C)c2)cc1`
Data returned: ≥ 7.00
